Could you please report measured logP for the items listed next?
# assay name: log P determination by HPLC on reversed-phase column (C 18), EEC Directive 79/831 Annex V.A8
# Type: physicochemical
# setup conditions: Table 1; HPLC, 40° C., 0.1% aqueous formic acid and acetonitrile
# output: bare number, no unit

Asked: Please supply the value of reported logP for the item Cc1nc2c(F)c(F)ccc2nc1Oc1cccc(Cl)c1C[Si](C)(C)O [I.49]
Given back: 4.13

Asked: Please supply the value of reported logP for the item C[Si](C)(Cc1cc(F)ccc1Nc1cnc2ccccc2c1)c1ccccc1 [I.39]
Given back: 3.99

Asked: Please supply the value of reported logP for the item C[Si](C)(C)Cc1ccccc1Oc1cnc2c(C(F)(F)F)cccc2c1 [I.35]
Given back: 6.28

Asked: Please supply the value of reported logP for the item C[Si](C)(Cc1c(Cl)cccc1Oc1cnc2ccccc2c1)c1cccs1 [I.56]
Given back: 6.20

Asked: Please supply the value of reported logP for the item C[Si](C)(C)Cc1c(Cl)cccc1Oc1cnc2c(C(F)(F)F)cccc2n1 [I.57]
Given back: 6.51

====

# assay name: log P determination by HPLC on reversed-phase column (C 18), EEC Directive 79/831 Annex V.A8
# Format: physicochemical
# setup conditions: reversed-phase HPLC column (C 18), Table 3, compounds of formula (V); defined as for table 1
# Method: In table 1, the log P values were determined in accordance with EEC Directive 79/831 Annex V.A8 by HPLC (High Performance Liquid Chromatography) on a reversed-phase column (C 18), using the method described below: […]
assay endpoint: chromatographic logP
# output: bare number, no unit

Asked: Please supply the value of reported chromatographic logP for the item "OCc1ccccc1Oc1cnc2c(F)cccc2c1"
Given back: 2.17

The values you see were collected from patent US20200275656A1.
